Exercise: state measured OD 450 nm at 20 ng/ml antibody for each of the binders provided.
Molecular target: T1, ICAM-1 protein antigen (R&D System) (human, UniProt P05362 28-480)
T1 construct: The assay paragraphs say only 'ICAM-1 (R&D System)'; also called antigen ICAM-1; ICAM-1 antigen
T1 sequence (P05362 28-480 limits assumed): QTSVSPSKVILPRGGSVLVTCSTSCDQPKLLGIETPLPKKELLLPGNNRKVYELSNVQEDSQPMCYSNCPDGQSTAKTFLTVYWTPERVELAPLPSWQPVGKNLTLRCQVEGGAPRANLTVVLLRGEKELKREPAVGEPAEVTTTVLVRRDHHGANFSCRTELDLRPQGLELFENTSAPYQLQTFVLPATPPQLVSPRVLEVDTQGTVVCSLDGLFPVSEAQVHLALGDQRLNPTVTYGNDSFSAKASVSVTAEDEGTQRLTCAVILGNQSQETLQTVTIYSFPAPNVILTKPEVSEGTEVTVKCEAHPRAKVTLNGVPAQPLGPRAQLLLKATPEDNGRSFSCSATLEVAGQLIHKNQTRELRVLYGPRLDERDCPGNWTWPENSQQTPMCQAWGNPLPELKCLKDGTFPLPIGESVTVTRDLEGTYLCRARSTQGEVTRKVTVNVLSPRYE
Assay: ELISA, ICAM-1 coated 100 ng/well, anti-human Ig-HRP
Procedure: The antigen ICAM-1 (ICAM-1; R&D System) was coated on a 96 well plate at 100 ng per well, followed by blocking. […] After the reaction was stopped by treatment with 1N H₂SO₄ solution in the same amount (100 ul) as the TMB solution, the OD value was measured at 450 nm.

Guide cases for OD 450 nm at 20 ng/ml antibody, answers given:
| Binder | OD 450 nm at 20 ng/ml antibody |
| --- | --- |
| humanized anti-ICAM-1 antibody H17L4 (VH17 + VL4), human IgG4/kappa (antibody, V domains shown, The Arg at the VL/CL junction is in neither entry; also called DNP007; DNP007 antibody (H17L4 antibody)) VH: QVQLVQSGAEVKKPGASVKISCKGSGYTFTDYALHWVRQAPGQRLEWMGVISTYSGNTDYNQKFRGRATITVDTSASTAYMELSSLRSEDTAVYYCARSLYFGSSGFDYWGQGTALTVSS VL: DVVLTQTPLSSPVTLGQPASISCRSSQTLVYRNGNTYLHWYQQRPGQPPRLLIYKVSNRFSGVPDRFSGSGAGTDFTLKISRVEAEDVGVYFCSQNTHFPYTFGGGTKLEIKT | 0.637 OD (450 nm) |
| humanized anti-ICAM-1 antibody H17L1 (VH17 + VL1), human IgG4/kappa (antibody, V domains shown) VH: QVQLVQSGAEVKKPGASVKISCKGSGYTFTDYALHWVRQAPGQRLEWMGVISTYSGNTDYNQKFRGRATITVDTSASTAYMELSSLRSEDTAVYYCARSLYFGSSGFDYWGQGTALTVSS VL: DVVLTQSPLSLPVTLGQPASISCRSSQTLVYRNGNTYLHWYQQRPGQSPRLLIYKVSNRFSGVPDRFSGSGSGTDFTLKISRVEAEDVGVYFCSQNTHFPYTFGGGTKLEIKT | 0.506 OD (450 nm) |

Next, consider the following binder.
Please list OD 450 nm at 20 ng/ml antibody recorded for the binder chimeric anti-ICAM-1 antibody SI9 (mouse SI9 variable regions, human IgG4/kappa constant regions) (antibody, the hinge lies in the heavy chain; also called chimeric antibody SI9; SI9 Chimeric; not shown: human IgG4 heavy chain constant region, GenBank AIC59040.1 (printed), hinge 'CPSCP' modified to 'CPPCP' (position not pr); human kappa light chain constant region, GenBank AAA58989.1 (printed)) heavy: QVQLQQSGAELVRPGVSVKISCKGSGYTFTDYALHWVKQSHAKSLEWIGVISTYSGNTDYNQKFRGKATMTVDKSSTTAYLELARLTSEDSAIHYCARSLYFGSSGFDYWGQGTALTVSS light: DVVLTQTPLSLPVNLGDQASISCRSSQTLVYRNGNTYLHWYLQKAGQSPKLLIYKVSNRFSGVPDRFSGSGSGTDFTLKISRVEAEDLGVYFCSQNTHFPYTFGGGTKIKR
0.473 OD (450 nm)
